Experiment: clinical
Conditions: human, in vivo, 150 mg, AUC0–12
Procedure: Safety was assessed through the recording, reporting and analysis of baseline medical conditions, AEs, physical examination findings (including vital signs and monitoring for bleeding), laboratory tests, ECOG PS and 12-lead electrocardiograms. […] PK was assessed using blood samples collected pre-treatment and on-treatment. […] Tumour response was evaluated according to RECIST (v1.1). Target and non-target lesions were measured by computed tomography or magnetic resonance imaging every 6 weeks. […]
Observation Type: AUC(0-t)
Reply with the number and its unit after it.

get_value(item= COc1ccc([C@@H](O)c2cc(-c3ncnc4cc(N5CCOCC5)ccc34)c(F)cc2Cl)nn1 [Peposertib, peposertib] , readout=AUC(0-t)) returns 3040 ng·h/mL
